Entries and their cell count
# Test system: Jurkat
# Assay Notes: cell count relative to DMSO control (fraction of control); higher = more cells (less growth inhibition)
# Condition Parameters: 48 h
Counter-ions that a name gives are not always drawn.
Respond with the number and no other words.

[
  {
    "Molecule": "CCCc1nn(C)c2c(=O)[nH]c(-c3cc(S(=O)(=O)N4CCN(C)CC4)ccc3OCC)nc12 [Sildenafil Citrate] (concentration: 25 µM)",
    "cell count": 0.719
  },
  {
    "Molecule": "Cc1ccc(C(=O)c2ccc(CC(=O)O)n2C)cc1 [Tolmetin·Na] (concentration: 25 µM)",
    "cell count": 0.912
  },
  {
    "Molecule": "CCCSc1ccc2[nH]c(NC(=O)OC)nc2c1 [Albendazole] (concentration: 2.5 µM)",
    "cell count": 0.209
  }
]

Identify the reported cell count for the following entry. C[n+]1ccccc1/C=N/O [Pralidoxime Chloride] (concentration: 25 µM)
0.959

Identify the reported cell count for the following entry. CCCCCN(C)CCC(O)(P(=O)(O)O)P(=O)(O)O [Ibandronate·Na Monohydrate] (concentration: 25 µM)
0.298

Identify the reported cell count for the following entry. Nc1nc(/C(=C/CC(=O)O)C(=O)N[C@@H]2C(=O)N3C(C(=O)O)=CCS[C@H]23)cs1 [Ceftibuten] (concentration: 25 µM)
1.11

Identify the reported cell count for the following entry. CC(=O)S[C@@H]1CC2=CC(=O)CC[C@]2(C)[C@H]2CC[C@@]3(C)[C@@H](CC[C@@]34CCC(=O)O4)[C@H]12 [Spironolactone] (concentration: 25 µM)
0.455
